parameter: glass transition temperature (°C)

# molecule, unit text, glass transition temperature
rows = [
    ("*CCN(CCOC(=O)Nc1ccc(C)c(NC(=O)O*)c1)c1ccc(/N=N/c2ccc(/N=N/c3cc(OC)c(/N=N/c4ccc([N+](=O)[O-])cc4)cc3OC)c(C)c2)cc1 (repeat unit)", "°C", 148.00),
    ("*C(=O)c1ccc2c(c1)C(=O)N(c1ccc(Oc3cccc(N4C(=O)c5ccc(*)cc5C4=O)c3)cc1)C2=O (repeat unit)", "°C", 280.50),
    ("*O[Si](*)(CCC)CCC (repeat unit)", "°C", -77.50),
    ("*c1ccc(Oc2ccc(N3C(=O)c4ccc([Si](C)(C)c5ccc6c(c5)C(=O)N(*)C6=O)cc4C3=O)cc2)cc1 (repeat unit)", "°C", 274.00),
    ("*CC(*)c1ccc([Si](C)(C)O)cc1 (repeat unit)", "°C", 147.00),
]

I = *c1ccc2c(c1)C(=O)N(c1ccc(-c3ccc(N4C(=O)c5ccc(C(*)(C(F)(F)F)C(F)(F)F)cc5C4=O)c(C)c3)cc1C)C2=O (repeat unit)
II = *c1cc(C(C)(C)c2ccc(O)cc2)cc(*)c1O (repeat unit)
Task: Of I and II , whose reported glass transition temperature is numerically smaller? Lab note: record the label of whichever item you select.
Output: II
(II: 135.00 °C, I: 352.00 °C)

---

parameter: glass transition temperature (°C)
Write the number in °C without appending the unit.

# molecule, unit text, glass transition temperature
rows = [
    ("*Oc1ccc(CC(NC(=O)Cc2ccc(OC(=O)CCCCCCC(*)=O)cc2)C(=O)OCC)cc1 (repeat unit)", "°C", 54.00),
]

Okay, now this molecule:
response.value for *c1ccc(Oc2ccc(-c3nc4cc(Oc5ccc(NC(=O)c6ccc7c(c6)C(=O)N(c6ccc(C(c8ccc(N9C(=O)c%10ccc(C(=O)Nc%11ccc(Oc%12ccc%13nc(-c%14ccc([N+](=O)[O-])cc%14)c(*)nc%13c%12)cc%11)cc%10C9=O)cc8)(C(F)(F)F)C(F)(F)F)cc6)C7=O)cc5)ccc4nc3-c3ccc([N+](=O)[O-])cc3)cc2)cc1 (repeat unit) (field: glass transition temperature) = 303.00

---

parameter: glass transition temperature (°C)

# compound, endpoint result
records = [
    ("*C(=O)c1ccc2c(c1)C(=O)N(c1cc(Oc3c(C)cc(-c4cc(C)c(Oc5cc(N6C(=O)c7ccc(*)cc7C6=O)cc(C(F)(F)F)c5)c(C)c4)cc3C)cc(C(F)(F)F)c1)C2=O (repeat unit)", 265.40),
    ("*c1ccc(-c2ccc(N(*)c3ccc(C)cc3)cc2)cc1 (repeat unit)", 85.00),
    ("*c1ccc2c3ccc(-c4ccc(-c5ccc(-c6ccc(*)s6)c6nccnc56)s4)cc3n(C(CCCCCCCC)CCCCCCCC)c2c1 (repeat unit)", 116.00),
    ("*C(F)(F)C1(F)C(F)(F)C(*)(F)C1(F)F (repeat unit)", 122.00),
]

I = *Nc1c(C)c(C)c(C(=O)c2ccc(NC(=O)c3ccc(C(*)=O)cc3)cc2)c(C)c1C (repeat unit)
II = *CCC[Si](*)(c1ccccc1)c1ccc(N(C)C)cc1 (repeat unit)
III = *Oc1ccc(C(=O)OCCCCCCOC(=O)c2ccc(*)cc2)cc1 (repeat unit)
Task: Thanks in advance: please rank these 3 entries by glass transition temperature, highest to lowest. A ranking is expressed here by listing the labels in the requested order.
Output: I, II, III
(I: 366.00 °C, II: 52.00 °C, III: 15.00 °C)

---

parameter: glass transition temperature (°C)

The examples below pair each entry with its known result.
# compound, endpoint result
measured = [
    ("*CCCC(=O)N* (repeat unit)", 62.80),
    ("*CC(*)c1ccccc1 (repeat unit)", 95.96),
]

1 = *CC(*)(F)C(=O)OCCC(F)(F)C(F)(F)C(F)(F)C(F)(F)C(F)(F)C(F)(F)C(F)(F)C(F)(F)F (repeat unit)
2 = *Oc1ccc(C2(c3ccc(Oc4ccc(/C=N/N=C/c5ccc(*)cc5)cc4)cc3)c3ccccc3-c3ccccc32)cc1 (repeat unit)
3 = *Sc1ccc(Sc2ccc(Sc3ccc4c(c3)Sc3ccc(*)cc3S4)cc2)cc1 (repeat unit)
Task: Which order do these items take when sorted by rising glass transition temperature? List them. A ranking is expressed here by listing the labels in the requested order.
Output: 1, 3, 2

---

parameter: glass transition temperature (°C)

A = *CC(c1ccccc1)C1C(=O)N(CCN(CC)c2ccc(/N=N/c3ccc([N+](=O)[O-])cc3)cc2)C(=O)C1* (repeat unit)
B = *CC(*)c1ccc(COCCCCO)cc1 (repeat unit)
Task: Of A and B , whose reported glass transition temperature is numerically smaller? Lab note: record the label of whichever item you select.
Output: B

I = *C(=O)Oc1ccc(C(C)(C)c2ccc(OC(=O)c3ccc4c(c3)C(=O)N(c3ccc(O)c(N5C(=O)c6ccc(*)cc6C5=O)c3)C4=O)cc2)cc1 (repeat unit)
II = *CC(*)c1ccccc1COCCCCCCCC (repeat unit)
Task: Of I and II , whose reported glass transition temperature is the larger number? Lab note: record the label of whichever item you select.
Output: I

---

parameter: glass transition temperature (°C)

# compound, endpoint result
records = [
    ("*c1ccc(Oc2ccc(-c3ccc(Oc4ccc(N5C(=O)c6cccc(Oc7c(C)cc(-c8cc(C)c(Oc9cccc%10c9C(=O)N(*)C%10=O)c(C)c8)cc7C)c6C5=O)cc4)cc3)cc2)cc1 (repeat unit)", 290.00),
    ("*Oc1ccc(-c2ccc(Oc3ccc(Oc4ccc(S(=O)(=O)c5ccc(Oc6ccc(*)cc6)cc5)cc4)cc3)c3ccccc23)c2ccccc12 (repeat unit)", 214.00),
    ("*/C=C(/*)CCCOc1ccc(OC(=O)c2ccc(OCCCCCCCC)cc2)cc1 (repeat unit)", 42.00),
    ("*Oc1ccc(S(=O)(=O)c2ccc(Oc3ccc(C(c4ccc(*)cc4)(C(F)(F)F)C(F)(F)F)cc3)cc2C(O)(C(F)(F)F)C(F)(F)F)c(C(O)(C(F)(F)F)C(F)(F)F)c1 (repeat unit)", 148.00),
    ("*c1cccc(S(=O)(=O)c2cccc(N3C(=O)c4ccc(Oc5ccc6c(c5)C(=O)N(*)C6=O)cc4C3=O)c2)c1 (repeat unit)", 246.00),
    ("*CC(*)C(=O)OC([2H])([2H])[2H] (repeat unit)", 35.00),
    ("*C(=O)c1ccc2c(c1)C(=O)N(c1cccc(C(O[Si](C)(C)O[Si](C)(C)O[Si](C)(C)C)c3cccc(N4C(=O)c5ccc(*)cc5C4=O)c3)c1)C2=O (repeat unit)", 235.00),
    ("*CCCCCCCCCCOc1ccc(/C=C2\\CC/C(=C\\c3ccc(OCCCCCCCCCCOP(=O)(O*)OC)c(OC)c3)C2=O)cc1OC (repeat unit)", 48.00),
]

A = *CC(CC(*)(C#N)C#N)c1ccc(OC(C)=O)cc1 (repeat unit)
B = *C(=O)Nc1ccc(C2(c3ccc(N4C(=O)c5ccc(*)cc5C4=O)cc3)CC(C)CC(C)(C)C2)cc1 (repeat unit)
C = *CC(*)OC(=O)CCCC(=O)c1ccccc1 (repeat unit)
Task: Which order do these items take when sorted by rising glass transition temperature? List them. A ranking is expressed here by listing the labels in the requested order.
Output: C, A, B

A = *CC(*)(C)C(=O)OCC1COC(c2ccccc2)O1 (repeat unit)
B = *C(=O)OCC(C)(C)CS(=O)(=O)CC(C)(C)COC(=O)N1CC(C)N(*)CC1C (repeat unit)
C = *O[Si](C)(C)c1ccc2cc([Si](*)(C)C)ccc2c1 (repeat unit)
Task: Thanks in advance: please rank these 3 entries by glass transition temperature, highest to lowest. A ranking is expressed here by listing the labels in the requested order.
Output: A, B, C

1 = *Nc1cccc(NC(=O)CCCCC(*)=O)c1 (repeat unit)
2 = *c1cccc(N2C(=O)c3ccc(-c4cccc5c4C(=O)N(*)C5=O)cc3C2=O)c1 (repeat unit)
3 = *CCCCCCOC(=O)OCCCCCCOC(=O)OCCCCCCOc1ccc(C(=O)c2ccc(O*)cc2)cc1 (repeat unit)
Task: Which order do these items take when sorted by rising glass transition temperature? List them. A ranking is expressed here by listing the labels in the requested order.
Output: 3, 1, 2

---

parameter: glass transition temperature (°C)

1 = *CCCCCCNC(=O)CCc1ccc(CCC(=O)N*)cc1 (repeat unit)
2 = *c1ccc(Cc2ccc(N3C(=O)CC(Nc4ccc(N(c5ccc(NC6CC(=O)N(*)C6=O)cc5)c5ccc([N+](=O)[O-])cc5)cc4)C3=O)cc2)cc1 (repeat unit)
3 = *COCOc1ccc(C(=O)OC(=O)c2ccc(O*)cc2)cc1 (repeat unit)
4 = *C(=O)c1ccc(Oc2ccc(-c3ccc(Oc4ccc(C(=O)c5ccc6nc(*)ccc6c5)cc4)cc3)cc2)cc1 (repeat unit)
5 = *CC(C)(C)COC(=O)CCCCC(=O)O* (repeat unit)
Task: Reorder the items by glass transition temperature, least to greatest. A ranking is expressed here by listing the labels in the requested order.
Output: 5, 3, 1, 4, 2
